study-target: CDK9/Cyclin T1 complex (Homo sapiens)
Sequence (P50750 whole entry, species assumed): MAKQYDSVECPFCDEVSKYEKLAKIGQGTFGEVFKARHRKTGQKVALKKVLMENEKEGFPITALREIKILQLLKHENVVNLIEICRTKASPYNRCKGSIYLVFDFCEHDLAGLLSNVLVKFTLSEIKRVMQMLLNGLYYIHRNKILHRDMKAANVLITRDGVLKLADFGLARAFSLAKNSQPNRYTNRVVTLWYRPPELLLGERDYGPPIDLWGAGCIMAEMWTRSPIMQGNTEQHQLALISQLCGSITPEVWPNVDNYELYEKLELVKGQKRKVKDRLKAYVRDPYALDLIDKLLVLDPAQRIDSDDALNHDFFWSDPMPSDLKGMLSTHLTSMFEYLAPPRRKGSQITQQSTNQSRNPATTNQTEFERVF
Sequence (O60563 whole entry partner, species assumed): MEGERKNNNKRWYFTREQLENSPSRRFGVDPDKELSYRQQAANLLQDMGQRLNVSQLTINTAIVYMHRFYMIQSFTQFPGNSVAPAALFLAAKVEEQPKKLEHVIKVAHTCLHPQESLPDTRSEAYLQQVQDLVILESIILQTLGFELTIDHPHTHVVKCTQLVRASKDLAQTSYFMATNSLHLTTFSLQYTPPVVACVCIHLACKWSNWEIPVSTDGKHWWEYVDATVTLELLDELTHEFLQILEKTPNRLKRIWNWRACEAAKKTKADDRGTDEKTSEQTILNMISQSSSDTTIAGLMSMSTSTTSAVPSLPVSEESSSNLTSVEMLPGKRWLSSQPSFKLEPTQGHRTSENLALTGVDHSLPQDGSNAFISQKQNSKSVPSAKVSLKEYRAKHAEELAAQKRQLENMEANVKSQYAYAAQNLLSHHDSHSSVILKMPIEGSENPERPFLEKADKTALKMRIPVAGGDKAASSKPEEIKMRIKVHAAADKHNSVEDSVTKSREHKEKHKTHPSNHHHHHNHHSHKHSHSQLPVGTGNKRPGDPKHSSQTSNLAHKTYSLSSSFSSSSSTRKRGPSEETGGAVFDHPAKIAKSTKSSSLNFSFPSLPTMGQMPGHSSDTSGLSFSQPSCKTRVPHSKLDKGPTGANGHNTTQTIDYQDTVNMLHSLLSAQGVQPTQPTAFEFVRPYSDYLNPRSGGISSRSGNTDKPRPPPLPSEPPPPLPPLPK
protocol: CDK9 inhibition assay (Caliper/LabChip EZ Reader kinase assay)
Format: biochemical
setup-conditions: Table 1; CDK9/Cyclin T1 8 nM, ATP 2 mM, 15 min at 27° C.
pIC50: −log10 of the molar value.
Reported pIC50 values are given for each entry in this list.

N#C[C@@H]1CCN(C(=O)c2ccc3c(-c4nc(N[C@H]5CCCNC5)ncc4C(F)(F)F)c[nH]c3c2)C1 ... 5.30 to 6.70
OCc1cncc(-c2ccc3c(-c4nc(N[C@H]5CCCNC5)ncc4C(F)(F)F)c[nH]c3c2)c1 ... 5.30 to 6.70
CCCCCC1CC[C@H](Nc2ncc(C(F)(F)F)c(-c3c[nH]c4ccccc34)n2)CN1 (mixture of isomers) ... 5.30 to 6.70

Documented pIC50 of CCc1cnc(N[C@H]2CCCNC2)nc1-c1c[nH]c2c(S(C)(=O)=O)cccc12 : 5.30 to 6.70
